Exercise: state measured IC50 for each of the compounds provided.
Biological target: skeletal myofibrils (myosin ATPase)
Assay: Skeletal Myofibril ATPase Assay
Type: biochemical
Settings: Table 4C

Readout IC50 for CC(C)Oc1ccc(-c2ccc(=O)n(CC(=O)NCc3ccccc3Cl)n2)cc1 , test system skeletal myofibrils (myosin ATPase), was < 10 µM

Readout IC50 for COc1ccc(-c2ccc(=O)n(CC(=O)NCc3ccc(Cl)cc3Cl)n2)cc1 , test system skeletal myofibrils (myosin ATPase), was < 10 µM

Readout IC50 for Cn1ccc2c(NC(=O)Cn3nc(-c4ccc(Cl)cc4)ccc3=O)cccc21 , test system skeletal myofibrils (myosin ATPase), was < 10 µM

Readout IC50 for CC(C)NC(=O)Cn1nc(-c2ccccc2)ccc1=O , test system skeletal myofibrils (myosin ATPase), was > 100 µM

Readout IC50 for CCOc1ccc(-c2ccc(=O)n(CC(=O)NCc3ccccc3Cl)n2)cc1 , test system skeletal myofibrils (myosin ATPase), was < 10 µM

Readout IC50 for COc1ccc(-c2ccc(=O)n(CC(=O)NCc3ccccc3)n2)cc1 , test system skeletal myofibrils (myosin ATPase), was 10 to 100 µM

Readout IC50 for CC[C@H](C)NC(=O)Cn1nc(-c2ccccc2)ccc1=O , test system skeletal myofibrils (myosin ATPase), was 10 to 100 µM

Readout IC50 for COc1ccc(-c2ccc(=O)n(CC(=O)NCc3ccco3)n2)cc1 [IIIb-37] , test system skeletal myofibrils (myosin ATPase), was 10 to 100 µM

Readout IC50 for COc1ccc(-c2ccc(=O)n(CC(=O)NCc3ccccc3Cl)n2)cc1C , test system skeletal myofibrils (myosin ATPase), was 10 to 100 µM

----------
Exercise: state measured pIC50 for each of the molecules provided.
Biological target: skeletal myofibrils (myosin ATPase)
Assay: Skeletal Myofibril ATPase Assay
Format: biochemical
Conditions: Table 4C
pIC50: −log10 of the molar value.

pIC50 reading for COc1ccc(-c2ccc(=O)n(CC(=O)Nc3ccc4c(c3)OCO4)n2)c(F)c1 : 4.00 to 5.00

pIC50 reading for O=C(Cn1nc(-c2ccc3c(c2)OCCCO3)ccc1=O)NC1CCCCCC1 : 4.00 to 5.00

pIC50 reading for COc1ccc(NC(=O)Cn2nc(-c3ccc(F)cc3)ccc2=O)c(OC)c1 : 4.00 to 5.00

pIC50 reading for CCc1cccc(NC(=O)Cn2nc(-c3ccc(C)cc3)ccc2=O)c1 : > 5.00

pIC50 reading for COc1ccc(-c2ccc(=O)n(CC(=O)NCCc3ccccc3)n2)cc1 : > 5.00

pIC50 reading for COc1ccc(-c2ccc(=O)n(CC(=O)NCCC3=CCCCC3)n2)cc1 : > 5.00

pIC50 reading for COc1ccc(-c2ccc(=O)n(CC(=O)NCc3ccc(Cl)cc3)n2)cc1 [IIIa-17] : > 5.00

pIC50 reading for CC(C)NC(=O)Cn1nc(-c2ccc(Br)cc2)ccc1=O : 4.00 to 5.00

pIC50 reading for C[C@@H](NC(=O)Cn1nc(-c2ccc3c(c2)OCCCO3)ccc1=O)c1ccc(F)cc1 : 4.00 to 5.00

pIC50 reading for COc1ccc(-c2ccc(=O)n(CC(=O)NCc3ccccc3Cl)n2)c(C)c1 : 4.00 to 5.00

pIC50 reading for O=C(Cn1nc(-c2ccc(F)cc2)ccc1=O)NCCc1c[nH]c2ccccc12 : 4.00 to 5.00

pIC50 reading for Cn1ccc2c(NC(=O)Cn3nc(-c4ccc(F)cc4)ccc3=O)cccc21 : > 5.00

pIC50 reading for COc1ccc(-c2ccc(=O)n(CC(=O)Nc3cccc4[nH]ccc34)n2)cc1 : > 5.00

pIC50 reading for COc1ccc(CNC(=O)Cn2nc(-c3ccc(OC)cc3)ccc2=O)cc1 : 4.00 to 5.00

pIC50 reading for COc1ccc(-c2ccc(=O)n(CC(=O)Nc3ccc(Cl)cc3Cl)n2)c(F)c1 : 4.00 to 5.00

pIC50 reading for COc1ccc(-c2ccc(=O)n(CC(=O)NCc3ccno3)n2)cc1 : < 4.00

pIC50 reading for Cc1ccc(-c2ccc(=O)n(CC(=O)NCCc3ccccc3)n2)cc1 : > 5.00

pIC50 reading for COc1ccc(-c2ccc(=O)n(CC(=O)NC3Cc4ccccc4C3)n2)cc1 : > 5.00

pIC50 reading for COc1ccc(-c2ccc(=O)n(CC(=O)NCc3ccccc3Cl)n2)c(F)c1 : > 5.00
